System: M1
Conditions: 5 uM vitamin K epoxide in medium; HEK293 VKORC1/VKORL1 knockout
OBSERVATION TYPE: IC50 (µM)
# unit: µM | format: bare number

Task: Notebook entry, M1 assay: IC50 of CC(=O)CC(c1ccccc1)c1c(O)c2ccccc2oc1=O (stereo not shown) = ?
Output: 0.4

====

Test system: S3-TM5/Trx
Assay: cell-based gamma-carboxylation reporter
Design: species or system Synechococcus sp. JA-2-3B'a(2-13)
Conditions: 5 uM vitamin K epoxide in medium; HEK293 VKORC1/VKORL1 knockout
OBSERVATION TYPE: IC50 (µM)
The figure you give is taken to be in µM; do not add the unit.

Task: Find the recorded IC50 belonging to CC(=O)CC(c1ccccc1)c1c(O)c2ccccc2oc1=O (stereo not shown) and report it.
Output: 1.11
